# target.or.test.system: recombinant human AChE (Homo sapiens, UniProt P22303)
# Sequence (P22303 32-614): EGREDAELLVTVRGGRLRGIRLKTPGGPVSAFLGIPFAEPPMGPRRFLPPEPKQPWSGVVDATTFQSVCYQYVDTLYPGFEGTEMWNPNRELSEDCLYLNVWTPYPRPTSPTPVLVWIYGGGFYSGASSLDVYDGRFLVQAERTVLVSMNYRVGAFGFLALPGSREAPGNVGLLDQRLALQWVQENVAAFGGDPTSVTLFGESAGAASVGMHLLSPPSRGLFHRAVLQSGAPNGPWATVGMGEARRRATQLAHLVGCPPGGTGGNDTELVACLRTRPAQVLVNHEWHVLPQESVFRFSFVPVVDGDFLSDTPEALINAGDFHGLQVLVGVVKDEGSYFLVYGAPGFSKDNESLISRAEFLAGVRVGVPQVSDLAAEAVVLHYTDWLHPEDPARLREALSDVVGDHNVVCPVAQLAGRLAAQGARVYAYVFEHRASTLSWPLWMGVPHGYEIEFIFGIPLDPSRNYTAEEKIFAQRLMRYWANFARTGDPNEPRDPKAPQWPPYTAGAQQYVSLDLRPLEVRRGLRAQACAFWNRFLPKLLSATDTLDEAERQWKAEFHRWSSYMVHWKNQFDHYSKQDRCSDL
# conditions.used: read-out: IC50, AChE inhibition; fluorescence-based assay
endpoint.name: pIC50
Answers are plain numbers, as −log10 of the molar value.

GET /values?readout=pIC50&system=recombinant human AChE (Homo sapiens, UniProt P22303)&item= O=C(NCc1ccnc(N2CCCC2)c1)C1CCCN(c2cc(-n3cncn3)ncn2)C1 (stereo not shown) [NCGC00526830]
6.89

###

# target.or.test.system: recombinant human AChE (Homo sapiens, UniProt P22303)
# conditions.used: read-out: IC50, AChE inhibition; colorimetric assay
endpoint.name: pIC50
Numbers only, as −log10 of the molar value.

Need pIC50 of O=C(NCc1ccnc(N2CCCC2)c1)C1CCCN(c2cc(-n3cncn3)ncn2)C1 (stereo not shown) , thanks.
6.57

Where do these numbers come from? They come from paper PMC10688023.
